observable: melting point

                                   molecule             result
0  O=C(O)C1=Cc2cc(F)cc(Br)c2OC1C(F)(F)F (centres unmarked)           > 300 °C
1  CCN(CC)c1ccc2c(c1)OC(C(F)(F)F)C(C(=O)O)=C2 (centres unmarked)  214.4 to 215.4 °C
2  O=C(O)C1=Cc2c(F)ccc(Br)c2OC1C(F)(F)F (centres unmarked)  221.7 to 223.3 °C
3  CC(C)(C)C#Cc1cc(Cl)cc2c1OC(C(F)(F)F)C(C(=O)O)=C2 (centres unmarked)  218.3 to 222.4 °C

Ask: Quick one: melting point for CCOC(=O)C1=Cc2cc(N)ccc2OC1C(F)(F)F (centres unmarked) ?
Reply: 111 to 115 °C
